test protocol: Clinical parent-metabolite pharmacokinetic study, plasma exposures after oral isoniazid
Assay type: in vivo, human (TB patients)
details: human, in vivo, po, 300 mg
endpoint name: AUC(0-t) (µM·h)

| smiles text | endpoint name | numeric readout |
| --- | --- | --- |
| CC(=O)NNC(=O)c1ccncc1 | AUC(0-t) | 158 |
